# experimental.protocol: reversed-phase LC retention time (C18, 15 min MeOH gradient); higher = more hydrophobic / later elution
# setup.conditions: ionization mode: ESI+; ion species: [M+H]+

- compound: "O=P(c1ccccc1)(c1ccccc1)c1ccccc1 [Triphenylphosphine oxide]"
  reversed-phase LC retention time / min: 13.9
- compound: "CC(=O)OCC(=O)[C@@]12OC3(CCCC3)O[C@@H]1C[C@H]1[C@@H]3CCC4=CC(=O)C=C[C@]4(C)[C@@]3(F)[C@@H](O)C[C@@]12C [Amcinonide]"
  reversed-phase LC retention time / min: 15.6
- compound: "O=[N+]([O-])/N=C1\\NCCN1Cc1ccc(Cl)nc1"
  reversed-phase LC retention time / min: 8.67
- compound: "C[C@]12C=CC(=O)C=C1CC[C@@H]1[C@@H]2C(=O)C[C@@]2(C)[C@H]1CC[C@]2(O)C(=O)CO"
  reversed-phase LC retention time / min: 11.9
- compound: "Cn1c(N)nc2ncc(-c3ccccc3)cc21 [2-Amino-1-methyl-6-phenylimidazo[4,5-b]pyridine (PhIP)]"
  reversed-phase LC retention time / min: 9.5
- compound: "CC(C)NCC(O)COc1ccc(CC(=O)O)cc1 (stereo not drawn)"
  reversed-phase LC retention time / min: 7.62
- compound: "Clc1ccc2c(c1)CCc1cccnc1C2=C1CCNCC1"
  reversed-phase LC retention time / min: 11.7
- compound: "CCCCC(CC)COC(=O)c1ccc(C(=O)OCC(CC)CCCC)c(C(=O)OCC(CC)CCCC)c1 (stereo not drawn) [Tris(2-ethylhexyl)trimellitate]"
  reversed-phase LC retention time / min: 20.9
- compound: "CC1COC(Cn2cncn2)(c2ccc(Oc3ccc(Cl)cc3)cc2Cl)O1 (stereo not drawn)"
  reversed-phase LC retention time / min: 16.1
- compound: "CCCSP(=O)(OCC)Oc1ccc(Br)cc1Cl (stereo not drawn)"
  reversed-phase LC retention time / min: 16.6
- compound: "NC(=O)c1c(Cl)cccc1Cl [2,6-Dichlorobenzamide]"
  reversed-phase LC retention time / min: 7.49
- compound: "[O-][n+]1cccc2ccccc21 [Quinoline N-oxide]"
  reversed-phase LC retention time / min: 7.48
- compound: "COc1cc(NS(=O)(=O)c2ccc(N)cc2)nc(OC)n1"
  reversed-phase LC retention time / min: 9.96
- compound: "Cc1cccc(C)c1N(Cn1cccn1)C(=O)CO [Metazachlor-2-hydroxy]"
  reversed-phase LC retention time / min: 11.1
- compound: "CCOP(=O)(OCC)OC(=CCl)c1ccc(Cl)cc1Cl"
  reversed-phase LC retention time / min: 15.7
- compound: "CO/N=C(/C(=O)O)c1ccccc1CO/N=C(\\C)c1cccc(C(F)(F)F)c1"
  reversed-phase LC retention time / min: 15.5
- compound: "CCCCCCCCCCCCN(C)C"
  reversed-phase LC retention time / min: 15.4
- compound: "COP(=O)(OC)C(O)C(Cl)(Cl)Cl (stereo not drawn)"
  reversed-phase LC retention time / min: 9.07

---

# experimental.protocol: reversed-phase LC retention time (C18, 15 min MeOH gradient); higher = more hydrophobic / later elution
# setup.conditions: ionization mode: ESI+; ion species: [M+H]+
readout.label: reversed-phase LC retention time (min)

- compound: "CCCCCCCCSc1nc(Nc2cc(C(C)(C)C)c(O)c(C(C)(C)C)c2)nc(SCCCCCCCC)n1"
  quantitative.readout: 21
- compound: "CC(CN1c2ccccc2Sc2ccccc21)N(C)C (stereo not given)"
  quantitative.readout: 12.3
- compound: "CC1(C)CCC(Cc2ccc(Cl)cc2)C1(O)Cn1cncn1 (stereo not given)"
  quantitative.readout: 15.8
- compound: "NC(=O)C1(N2CCCCC2)CCN(CCCC(=O)c2ccc(F)cc2)CC1"
  quantitative.readout: 9.13
- compound: "CCCN(CCC)CCC"
  quantitative.readout: 6.72
- compound: "CCN(CC)CC#CCOC(=O)C(O)(c1ccccc1)C1CCCCC1 (stereo not given)"
  quantitative.readout: 13.4
- compound: "CCCCCCCCCCCC(=O)N(CCO)CCO [Lauryl diethanolamide]"
  quantitative.readout: 16.4
- compound: "Clc1cccc(Cl)c1NC1=NCCN1"
  quantitative.readout: 6.83
- compound: "COc1ccc(CCN(C)CCCC(C#N)(c2ccc(OC)c(OC)c2)C(C)C)cc1OC (stereo not given)"
  quantitative.readout: 12.2
- compound: "CN/C(=C\\[N+](=O)[O-])NCCSCc1ccc(CN(C)C)o1"
  quantitative.readout: 6.09

---

compounds and their reported collision cross section
# experimental.protocol: collision cross section (TIMS, N2 drift gas) of the primary ion; higher = larger gas-phase ion size
# setup.conditions: ionization mode: ESI+; ion species: [M+H]+
readout.label: collision cross section (Å²)

- compound: "COP(=S)(OC)Oc1c(Cl)cc(C)cc1Cl"
  unit.descriptor: "Å²"
  quantitative.readout: 151.78
- compound: "CC(C)(c1ccc(OCC(O)CCl)cc1)c1ccc(OCC(O)CCl)cc1 (stereo unspecified) [Bisphenol A bis(3-chloro-2-hydroxypropyl) ether]"
  unit.descriptor: "Å²"
  quantitative.readout: 194.74
- compound: "O=C(Nc1ccc(F)cc1F)c1cccnc1Oc1cccc(C(F)(F)F)c1"
  unit.descriptor: "Å²"
  quantitative.readout: 189.49
- compound: "OC(Cn1cncn1)(Cn1cncn1)c1ccc(F)cc1F"
  unit.descriptor: "Å²"
  quantitative.readout: 166.92
- compound: "O=C(O)COCCN1CCN(C(c2ccccc2)c2ccc(Cl)cc2)CC1 (stereo unspecified)"
  unit.descriptor: "Å²"
  quantitative.readout: 200.88
- compound: "CO/C=C(/C(=O)O)c1ccccc1Oc1cc(Oc2ccccc2C#N)ncn1"
  unit.descriptor: "Å²"
  quantitative.readout: 190.75
- compound: "NC(=O)N1c2ccccc2CC(O)c2ccccc21 (stereo unspecified) [10,11-Dihydro-10-hydroxycarbamazepine]"
  unit.descriptor: "Å²"
  quantitative.readout: 154.89
- compound: "CCCCC(=O)N(Cc1ccc(-c2ccccc2-c2nn[nH]n2)cc1)C(C(=O)O)C(C)C (stereo unspecified)"
  unit.descriptor: "Å²"
  quantitative.readout: 204.42
- compound: "CC(C)NCC(O)c1ccc(NS(C)(=O)=O)cc1 (stereo unspecified)"
  unit.descriptor: "Å²"
  quantitative.readout: 166.72
- compound: "CCC(C)n1c(=O)[nH]c(C)c(Br)c1=O (stereo unspecified)"
  unit.descriptor: "Å²"
  quantitative.readout: 144.76
- compound: "COCC(C)N(C(=O)CS(=O)(=O)O)c1c(C)csc1C (stereo unspecified)"
  unit.descriptor: "Å²"
  quantitative.readout: 166.05
- compound: "CCCCc1ncc(/C=C(\\Cc2cccs2)C(=O)O)n1Cc1ccc(C(=O)O)cc1"
  unit.descriptor: "Å²"
  quantitative.readout: 206.28
- compound: "COc1cc(Cc2cnc(N)nc2N)cc(OC)c1OC"
  unit.descriptor: "Å²"
  quantitative.readout: 173.75
- compound: "CC(Oc1ccc(Oc2ncc(C(F)(F)F)cc2Cl)cc1)C(=O)O (stereo unspecified)"
  unit.descriptor: "Å²"
  quantitative.readout: 181.48
- compound: "Nc1cnn(-c2ccccc2)c(=O)c1Cl"
  unit.descriptor: "Å²"
  quantitative.readout: 143.41
- compound: "Cn1cnc2c1c(=O)n(CCCC(=O)O)c(=O)n2C"
  unit.descriptor: "Å²"
  quantitative.readout: 154.67
- compound: "CCNC(=O)C(C)Oc1cccc2ccccc12 (stereo unspecified) [Desethyl-napropamide]"
  unit.descriptor: "Å²"
  quantitative.readout: 159.85
- compound: "N[C@@H](Cc1cc(I)c(Oc2ccc(O)c(I)c2)c(I)c1)C(=O)O"
  unit.descriptor: "Å²"
  quantitative.readout: 209.12
- compound: "COCCc1ccc(OCC(O)CNC(C)C)cc1 (stereo unspecified)"
  unit.descriptor: "Å²"
  quantitative.readout: 171.87
- compound: "CC(C)CC(C)NC1=CC(=O)C(Nc2ccccc2)=CC1=O (stereo unspecified)"
  unit.descriptor: "Å²"
  quantitative.readout: 181.85
- compound: "Cc1ccc(O)c(-n2nc3ccccc3n2)c1"
  unit.descriptor: "Å²"
  quantitative.readout: 148.63
- compound: "O=S(=O)(O)c1ccc2[nH]c(-c3ccccc3)nc2c1"
  unit.descriptor: "Å²"
  quantitative.readout: 166.31
- compound: "NC(N)=NC(=O)Cc1c(Cl)cccc1Cl"
  unit.descriptor: "Å²"
  quantitative.readout: 152.13
- compound: "Cc1c(N(C)C)c(=O)n(-c2ccccc2)n1C"
  unit.descriptor: "Å²"
  quantitative.readout: 151.98
- compound: "CSC1=N[C@@](C)(c2ccccc2)C(=O)N1Nc1ccccc1"
  unit.descriptor: "Å²"
  quantitative.readout: 173.13
- compound: "CCCOc1nn(C(=O)NS(=O)(=O)c2ccccc2C(=O)OC)c(=O)n1C"
  unit.descriptor: "Å²"
  quantitative.readout: 199.32
- compound: "CCN(CC)C(=O)c1cccc(C)c1"
  unit.descriptor: "Å²"
  quantitative.readout: 142.86
- compound: "O=C1NCCN1Cc1ccc(Cl)nc1"
  unit.descriptor: "Å²"
  quantitative.readout: 143.26
- compound: "CN(C)CCCC1(c2ccc(F)cc2)OCc2cc(C#N)ccc21 (stereo unspecified)"
  unit.descriptor: "Å²"
  quantitative.readout: 182.06
- compound: "COCC(=O)Nc1c(I)c(C(=O)NCC(O)CO)c(I)c(C(=O)N(C)CC(O)CO)c1I (stereo unspecified) [Iopromide]"
  unit.descriptor: "Å²"
  quantitative.readout: 215.51
- compound: "CCOP(=O)(OCC)OC(=CCl)c1ccc(Cl)cc1Cl"
  unit.descriptor: "Å²"
  quantitative.readout: 169.3
- compound: "CCC(=C(c1ccc(O)cc1)c1ccc(OCCN(C)C)cc1)c1ccccc1 [4-Hydroxytamoxifen]"
  unit.descriptor: "Å²"
  quantitative.readout: 202.55
- compound: "C/C=C1\\N(C)C(C)CC1(c1ccccc1)c1ccccc1 (stereo unspecified)"
  unit.descriptor: "Å²"
  quantitative.readout: 166.21
- compound: "CNC1(c2ccccc2Cl)CCCCC1=O (stereo unspecified)"
  unit.descriptor: "Å²"
  quantitative.readout: 149.17
- compound: "O=c1cc(-c2ccccc2)oc2cc(O)cc(O)c12"
  unit.descriptor: "Å²"
  quantitative.readout: 154.65
- compound: "COc1cc2c(c3oc(=O)c4c(c13)CCC4=O)C1C=COC1O2 (stereo unspecified)"
  unit.descriptor: "Å²"
  quantitative.readout: 165.23
